tested on: RXRa DBDmut IVT, anti-RXR (DBD mutation: RXRa K156A/R161A, NR concentration 90 nM); assay: PBM binding z-score (relative to random genomic background probes); higher = stronger binding; sequences stand for … in GC…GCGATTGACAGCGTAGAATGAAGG
Would you please tag the item Condition met when its PBM binding z-score is 0.4 or above, and Condition not met when it is below?

Query string: State whether the measured PBM binding z-score reaches 0.4, counting equality as reaching it, for CTCGAAAGGTCGTGCTCAGGTTAGTATACCAAAC
Result string: Condition met

Query string: State whether the measured PBM binding z-score reaches 0.4, counting equality as reaching it, for ATCGAGAGGTCGAGGTGAGTATAGAGAAAGGGAA
Result string: Condition met

Query string: State whether the measured PBM binding z-score reaches 0.4, counting equality as reaching it, for CCTAGCAGGCCAGGGTCACTGAAGCATTTCGCTT
Result string: Condition not met

###

system: PXR:RXRa (NR concentration 270 nM, RXRa partner concentration 90 nM); assay: PBM binding z-score (relative to random genomic background probes); higher = stronger binding; sequences stand for … in GC…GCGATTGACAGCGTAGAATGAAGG
recorded metric: PBM binding z-score
Output spec: single numeric token, no unit.

Below, 5 sequences whose answers are already recorded.
> print(dat)
                     monomer.sequence      recorded.metric  reported.result
1  CGTCCAAGGTCAGCCGGTCAGTGAAAGCGACGTG  PBM binding z-score              2.9
2  TCGAGTAGATTACCAATGGGGCATTCAGCTTTCT  PBM binding z-score           -0.345
3  CCTGACAGGTGAAAGGTAACTCAGTCTGGTACGC  PBM binding z-score            0.876
4  CAAACTAGGTCACGAAAGTTCAAAGTCGAATGAC  PBM binding z-score             7.11
5  ACTAGCAGGCCAAGTTTGGGTCAATCAAACAAAG  PBM binding z-score            0.526

Query string: What value of measured PBM binding z-score is listed for TCTTCTAGGTCAGTTGGTCAGCTAACGAGCTGCC ?
Result string: 1.3

Query string: What value of measured PBM binding z-score is listed for TCGCGTAGGTTAGGGGCATTCAGAATGGCGTCGA ?
Result string: 0.489

Query string: What value of measured PBM binding z-score is listed for TCATATAGGTAAATGCTAGTTGAAAGTCCGATCT ?
Result string: 0.488

Query string: What value of measured PBM binding z-score is listed for CCTGCAAGGTCAATGGTCAGCTAAAGCAGCTCGC ?
Result string: 3.78

Query string: What value of measured PBM binding z-score is listed for GTACCAAGGTGAATAGGTCGTGGATGAGTAGGCG ?
Result string: 0.978

Query string: What value of measured PBM binding z-score is listed for AATACAGGGTCATCGTAGGCCAGTGTACGCACAG ?
Result string: 4.95

Query string: What value of measured PBM binding z-score is listed for TGAATGAGGTTTTAAGATCAGGGAACGTTGCAAA ?
Result string: -0.0619

###

test system: THRa:RXRa (NR concentration 90 nM, RXRa partner concentration 90 nM); experiment: PBM binding z-score (relative to random genomic background probes); higher = stronger binding; sequences stand for … in GC…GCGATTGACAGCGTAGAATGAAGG
recorded metric: PBM binding z-score
Output spec: single numeric token, no unit.

Below, 2 sequences whose answers are already recorded.
> print(dat)
                     monomer.sequence      recorded.metric  reported.result
1  ACAGACAGGTCAGTGAAGGTAACTCAGCTGGACG  PBM binding z-score             3.86
2  ACTATTAGTTGACTTGGGGCAACCGATACGACGC  PBM binding z-score             1.29

Query string: What value of measured PBM binding z-score is listed for TCGAGTTGGTTAGTCGGGGCATTCAGCCAACATA ?
Result string: 0.331

Query string: What value of measured PBM binding z-score is listed for ACAGACAGTTGAGTGAAGGTAACTCAGCTGGACG ?
Result string: 0.662

Query string: What value of measured PBM binding z-score is listed for CCTAGTAGGCCAGGGTCACTCAAGCATTTCGCTT ?
Result string: 2.94

Query string: What value of measured PBM binding z-score is listed for CGAACTAGGTCAAGGACAGGGAATCTCCGCACGC ?
Result string: 3.13

Query string: What value of measured PBM binding z-score is listed for CCTCGGAGGACAGAAGGGCAGAGCTGTCCGCTTT ?
Result string: -0.248

Query string: What value of measured PBM binding z-score is listed for ATATGTAGGGTATCGGGTCATTCAGTTTGCGCAT ?
Result string: 3.07

Query string: What value of measured PBM binding z-score is listed for TCTGCTAGGTCAGTAGGTCAGCTAACGAGCTGCC ?
Result string: 1.93

Query string: What value of measured PBM binding z-score is listed for ATCTCTAGGTAAAGATAGTTCACTGAATGCAAAT ?
Result string: 1.31

###

Overview of reported PBM binding z-score across a group of sequences:
test system: PPARg:RXRa 270nM:90nM, anti-RXR (NR concentration 270 nM, RXRa partner concentration 90 nM); test: PBM binding z-score (relative to random genomic background probes); higher = stronger binding; sequences stand for … in GC…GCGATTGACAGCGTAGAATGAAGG
Output spec: single numeric token, no unit.

> print(dat)
                     monomer.sequence      recorded.metric  reported.result
1  CGAACGAGGGCATGGGTTGATAGCAAATGCCGAT  PBM binding z-score              3.6
2  CCTAGCAGGCCAATCTGGGTCACTTAAGGCTTGA  PBM binding z-score             2.03
3  GCATATAGGTAATACAAGGTGAGAGTCCGATTGT  PBM binding z-score             1.19
4  TAGCCTAGGTCATGCGGGCCTGTATAGTGTCGGC  PBM binding z-score             2.39
5  GCTAGTTGGTCAGTAAAAGGTCACACACCGGTCG  PBM binding z-score             4.23

# input for lookup
Query string: What value of measured PBM binding z-score is listed for TCGGCTAGGTCAGTTGGTCAGCTAACGAGCTGCC ?
Result string: 1.28

###

tested on: FXR:RXRa (NR concentration 270 nM, RXRa partner concentration 90 nM); test: PBM binding z-score (relative to random genomic background probes); higher = stronger binding; sequences stand for … in GC…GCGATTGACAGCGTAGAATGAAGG
recorded metric: PBM binding z-score
Output spec: single numeric token, no unit.

Below, 3 sequences whose answers are already recorded.
> print(dat)
                     monomer.sequence                             target.system      recorded.metric  reported.result
1  TCATATAGGTAAAGGTGAAAGGCGAACGATATGA  FXR:RXRa (NR concentration 270 nM, RXRa partner concentration 90 nM)  PBM binding z-score            0.813
2  CATACAGGGTCAGCTAGGCCAGAGAAGGGACGGC  FXR:RXRa (NR concentration 270 nM, RXRa partner concentration 90 nM)  PBM binding z-score             4.68
3  CCGACTGGGGCAGAAAGGATACCATACCATCCGG  FXR:RXRa (NR concentration 270 nM, RXRa partner concentration 90 nM)  PBM binding z-score            -0.81

Query string: What value of measured PBM binding z-score is listed for ATAGGTAGGTTAGCTGGGGTCATTCAGACTAGGC ?
Result string: 4.92

Query string: What value of measured PBM binding z-score is listed for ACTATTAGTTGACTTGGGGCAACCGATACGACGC ?
Result string: 0.435

Query string: What value of measured PBM binding z-score is listed for GCTGCTAGGTCAACTGATGGTCAGCTGAAGCTCG ?
Result string: 4.05

Query string: What value of measured PBM binding z-score is listed for GCTATTAGTTGAAAGGGTAACCGAATGATTCTCG ?
Result string: -0.0135

Query string: What value of measured PBM binding z-score is listed for CATCCAAGGTCAGAGAGGTCAGTGAATGCCGAGT ?
Result string: 6.31

Query string: What value of measured PBM binding z-score is listed for GCGACTGGTGCATCAGCAGGTTACCATAACTTAA ?
Result string: -0.753

###

tested on: RARb:RXRa (NR concentration 270 nM, RXRa partner concentration 90 nM); experiment: PBM binding z-score (relative to random genomic background probes); higher = stronger binding; sequences stand for … in GC…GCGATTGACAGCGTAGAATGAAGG
Overview of reported PBM binding z-score across a group of sequences:
Output spec: single numeric token, no unit.

Below, 5 sequences whose answers are already recorded.
> print(dat)
                     monomer.sequence      recorded.metric  reported.result
1  CCTCGCAGGCCAATCTGGGTCACTCAAGGCTTGA  PBM binding z-score             1.67
2  TCTGCTAGGTCGGTTGGTCAGCTAACGAGCTGCC  PBM binding z-score            0.845
3  TCGAGTAGGTTAGTCGGGCCATTCAGCCAACATA  PBM binding z-score            0.287
4  CGTCCAAGGTCAAGGACAGTGAAAGAGACTCGAA  PBM binding z-score             5.22
5  ACTAGTTGGTCAGCTGAGGTCACACAGAATTCGG  PBM binding z-score             3.72

# input for lookup
Query string: Provide value of PBM binding z-score for this record tested with RARb:RXRa (NR concentration 270 nM, RXRa partner concentration 90 nM): AATACATGGTCACTAGGCCAGAGTAGGTACGAAT
Result string: 1.14
